Test system: NCI-H647
Experiment: relative viability (nuclei count vs DMSO), 5 days (fraction); higher = more cells survive
Conditions: first compound 0.002 µM
Listing of recorded relative viability by entry.
I only need the number, thanks.

CC(=O)O[C@@]12CO[C@@H]1C[C@H](O)[C@@]1(C)C(=O)[C@H](O)C3=C(C)[C@@H](OC(=O)[C@H](O)[C@@H](NC(=O)OC(C)(C)C)c4ccccc4)C[C@@](O)([C@@H](OC(=O)c4ccccc4)[C@H]21)C3(C)C [Docetaxel] + CS(=O)(=O)CCNCc1ccc(-c2ccc3ncnc(Nc4ccc(OCc5cccc(F)c5)c(Cl)c4)c3c2)o1 [Lapatinib] (partner 2 µM) : 0.119

# relative viability lookup, item CC(=O)O[C@@]12CO[C@@H]1C[C@H](O)[C@@]1(C)C(=O)[C@H](O)C3=C(C)[C@@H](OC(=O)[C@H](O)[C@@H](NC(=O)OC(C)(C)C)c4ccccc4)C[C@@](O)([C@@H](OC(=O)c4ccccc4)[C@H]21)C3(C)C [Docetaxel] + NC(=O)Nc1cc(-c2cccc(F)c2)sc1C(=O)N[C@H]1CCCNC1 [AZD7762] (partner 0.2 µM)
0.0746

# relative viability lookup, item CC(=O)O[C@@]12CO[C@@H]1C[C@H](O)[C@@]1(C)C(=O)[C@H](O)C3=C(C)[C@@H](OC(=O)[C@H](O)[C@@H](NC(=O)OC(C)(C)C)c4ccccc4)C[C@@](O)([C@@H](OC(=O)c4ccccc4)[C@H]21)C3(C)C [Docetaxel] + Cc1nc(Nc2ncc(C(=O)Nc3c(C)cccc3Cl)s2)cc(N2CCN(CCO)CC2)n1 [Dasatinib] (partner 0.075 µM)
0.0799

# relative viability lookup, item CC(=O)O[C@@]12CO[C@@H]1C[C@H](O)[C@@]1(C)C(=O)[C@H](O)C3=C(C)[C@@H](OC(=O)[C@H](O)[C@@H](NC(=O)OC(C)(C)C)c4ccccc4)C[C@@](O)([C@@H](OC(=O)c4ccccc4)[C@H]21)C3(C)C [Docetaxel] + C[C@@H](Oc1cc(-c2cnn(C3CCNCC3)c2)cnc1N)c1c(Cl)ccc(F)c1Cl [Crizotinib] (partner 1 µM)
0.172

* * *

Test system: NCI-H647
Test: relative viability (nuclei count vs DMSO), 5 days (fraction); higher = more cells survive
Details: first compound 0.08 µM
Listing of recorded relative viability by entry.
I only need the number, thanks.

Cc1cnc(-c2cnc(NCCNc3ccc(C#N)cn3)nc2-c2ccc(Cl)cc2Cl)[nH]1 + COc1cc2c(Oc3ccc(NC(=O)C4(C(=O)Nc5ccc(F)cc5)CC4)cc3F)ccnc2cc1OCCCN1CCOCC1 [Foretinib] (partner 0.25 µM) : 1.35
O=c1[nH]c2ccccc2n1C1CCN(CCCC(c2ccc(F)cc2)c2ccc(F)cc2)CC1 [Pimozide] + O=C(CCCCCCC(=O)Nc1ccccc1)NO [Vorinostat] (partner 1 µM) : 0.5
Cc1cnc(-c2cnc(NCCNc3ccc(C#N)cn3)nc2-c2ccc(Cl)cc2Cl)[nH]1 + CS(=O)(=O)N1CCN(Cc2cc3nc(-c4cccc5[nH]ncc45)nc(N4CCOCC4)c3s2)CC1 [Pictilisib] (partner 1 µM) : 0.451
Cc1cnc(-c2cnc(NCCNc3ccc(C#N)cn3)nc2-c2ccc(Cl)cc2Cl)[nH]1 + Cc1cc(Nc2cc(N3CCN(C)CC3)nc(Sc3ccc(NC(=O)C4CC4)cc3)n2)n[nH]1 [Tozasertib] (partner 0.1 µM) : 0.306

# relative viability lookup, item Cc1cnc(-c2cnc(NCCNc3ccc(C#N)cn3)nc2-c2ccc(Cl)cc2Cl)[nH]1 + Nc1nc2[nH]cc(CCc3ccc(C(=O)N[C@@H](CCC(=O)O)C(=O)O)cc3)c2c(=O)[nH]1 [Pemetrexed] (partner 0.2 µM)
0.18

* * *

Listing of recorded relative viability by entry.
Test system: LXF-289
Assay: relative viability (nuclei count vs DMSO), 5 days (fraction); higher = more cells survive
Conditions: first compound 2.53 µM
I only need the number, thanks.

O=c1[nH]c2ccccc2n1C1CCN(CCCC(c2ccc(F)cc2)c2ccc(F)cc2)CC1 [Pimozide] + O=C(c1cc(Cc2n[nH]c(=O)c3ccccc23)ccc1F)N1CCN(C(=O)C2CC2)CC1 [Olaparib] (partner 8 µM) : 0.937
O=c1[nH]c2ccccc2n1C1CCN(CCCC(c2ccc(F)cc2)c2ccc(F)cc2)CC1 [Pimozide] + C[C@@H](Oc1cc(-c2cnn(C3CCNCC3)c2)cnc1N)c1c(Cl)ccc(F)c1Cl [Crizotinib] (partner 1 µM) : 0.774
Cc1cnc(-c2cnc(NCCNc3ccc(C#N)cn3)nc2-c2ccc(Cl)cc2Cl)[nH]1 + C[C@@H](Oc1cc(-c2cnn(C3CCNCC3)c2)cnc1N)c1c(Cl)ccc(F)c1Cl [Crizotinib] (partner 1 µM) : 0.87
O=c1[nH]c2ccccc2n1C1CCN(CCCC(c2ccc(F)cc2)c2ccc(F)cc2)CC1 [Pimozide] + C[C@]1(O)C[C@@H](c2nc(-c3ccc4ccc(-c5ccccc5)nc4c3)c3c(N)nccn32)C1 [Linsitinib] (partner 1 µM) : 0.946
O=c1[nH]c2ccccc2n1C1CCN(CCCC(c2ccc(F)cc2)c2ccc(F)cc2)CC1 [Pimozide] + O=C(CCCCCCC(=O)Nc1ccccc1)NO [Vorinostat] (partner 1 µM) : 0.88

State its relative viability on LXF-289: Cc1cnc(-c2cnc(NCCNc3ccc(C#N)cn3)nc2-c2ccc(Cl)cc2Cl)[nH]1 + CS(=O)(=O)CCNCc1ccc(-c2ccc3ncnc(Nc4ccc(OCc5cccc(F)c5)c(Cl)c4)c3c2)o1 [Lapatinib] (partner 2 µM)
1.04

State its relative viability on LXF-289: O=c1[nH]c2ccccc2n1C1CCN(CCCC(c2ccc(F)cc2)c2ccc(F)cc2)CC1 [Pimozide] + NC(=O)Nc1cc(-c2cccc(F)c2)sc1C(=O)N[C@H]1CCCNC1 [AZD7762] (partner 0.2 µM)
1.13

State its relative viability on LXF-289: O=c1[nH]c2ccccc2n1C1CCN(CCCC(c2ccc(F)cc2)c2ccc(F)cc2)CC1 [Pimozide] + Cc1nc(Nc2ncc(C(=O)Nc3c(C)cccc3Cl)s2)cc(N2CCN(CCO)CC2)n1 [Dasatinib] (partner 0.075 µM)
0.205

* * *

System: EMC-BAC-2
Experiment: relative viability (nuclei count vs DMSO), 5 days (fraction); higher = more cells survive
Conditions: first compound 0.005 µM
Listing of recorded relative viability by entry.
I only need the number, thanks.

Nc1ccn([C@@H]2O[C@H](CO)[C@@H](O)[C@@H]2O)c(=O)n1 [Cytarabine] + O=C(CCCCCCC(=O)Nc1ccccc1)NO [Vorinostat] (partner 1 µM) : 0.494

State its relative viability on EMC-BAC-2: Nc1ccn([C@@H]2O[C@H](CO)[C@@H](O)[C@@H]2O)c(=O)n1 [Cytarabine] + CC(=O)c1c(C)c2cnc(Nc3ccc(N4CCNCC4)cn3)nc2n(C2CCCC2)c1=O [Palbociclib] (partner 0.5 µM)
0.51

State its relative viability on EMC-BAC-2: Nc1ccn([C@@H]2O[C@H](CO)[C@@H](O)[C@@H]2O)c(=O)n1 [Cytarabine] + Nc1ncn([C@H]2C[C@H](O)[C@@H](CO)O2)c(=O)n1 [Decitabine] (partner 2 µM)
0.943

State its relative viability on EMC-BAC-2: COc1cc2nccc(Oc3ccc(NC(=O)Nc4cc(C)on4)c(Cl)c3)c2cc1OC [Tivozanib] + Cc1cc(Nc2cc(N3CCN(C)CC3)nc(Sc3ccc(NC(=O)C4CC4)cc3)n2)n[nH]1 [Tozasertib] (partner 0.1 µM)
0.255

State its relative viability on EMC-BAC-2: COc1cc2nccc(Oc3ccc(NC(=O)Nc4cc(C)on4)c(Cl)c3)c2cc1OC [Tivozanib] + C[C@@H](Oc1cc(-c2cnn(C3CCNCC3)c2)cnc1N)c1c(Cl)ccc(F)c1Cl [Crizotinib] (partner 1 µM)
0.769

* * *

Listing of recorded relative viability by entry.
Tested on: NCI-H2023
Test: relative viability (nuclei count vs DMSO), 5 days (fraction); higher = more cells survive
Details: first compound 0.08 µM
I only need the number, thanks.

# annotated cases, reported relative viability shown
O=c1[nH]c2ccccc2n1C1CCN(CCCC(c2ccc(F)cc2)c2ccc(F)cc2)CC1 [Pimozide] + C[C@@H](Oc1cc(-c2cnn(C3CCNCC3)c2)cnc1N)c1c(Cl)ccc(F)c1Cl [Crizotinib] (partner 1 µM) : 0.539
O=c1[nH]c2ccccc2n1C1CCN(CCCC(c2ccc(F)cc2)c2ccc(F)cc2)CC1 [Pimozide] + Cc1nc(Nc2ncc(C(=O)Nc3c(C)cccc3Cl)s2)cc(N2CCN(CCO)CC2)n1 [Dasatinib] (partner 0.075 µM) : 0.497
Cc1cnc(-c2cnc(NCCNc3ccc(C#N)cn3)nc2-c2ccc(Cl)cc2Cl)[nH]1 + C[C@]1(O)C[C@@H](c2nc(-c3ccc4ccc(-c5ccccc5)nc4c3)c3c(N)nccn32)C1 [Linsitinib] (partner 1 µM) : 0.779

# relative viability lookup, item Cc1cnc(-c2cnc(NCCNc3ccc(C#N)cn3)nc2-c2ccc(Cl)cc2Cl)[nH]1 + O=C(c1cc(Cc2n[nH]c(=O)c3ccccc23)ccc1F)N1CCN(C(=O)C2CC2)CC1 [Olaparib] (partner 8 µM)
0.502

# relative viability lookup, item Cc1cnc(-c2cnc(NCCNc3ccc(C#N)cn3)nc2-c2ccc(Cl)cc2Cl)[nH]1 + CS(=O)(=O)CCNCc1ccc(-c2ccc3ncnc(Nc4ccc(OCc5cccc(F)c5)c(Cl)c4)c3c2)o1 [Lapatinib] (partner 2 µM)
1.23

# relative viability lookup, item Cc1cnc(-c2cnc(NCCNc3ccc(C#N)cn3)nc2-c2ccc(Cl)cc2Cl)[nH]1 + C[C@@H](Oc1cc(-c2cnn(C3CCNCC3)c2)cnc1N)c1c(Cl)ccc(F)c1Cl [Crizotinib] (partner 1 µM)
0.775

# relative viability lookup, item O=c1[nH]c2ccccc2n1C1CCN(CCCC(c2ccc(F)cc2)c2ccc(F)cc2)CC1 [Pimozide] + O=C(c1cc(Cc2n[nH]c(=O)c3ccccc23)ccc1F)N1CCN(C(=O)C2CC2)CC1 [Olaparib] (partner 8 µM)
0.481

# relative viability lookup, item Cc1cnc(-c2cnc(NCCNc3ccc(C#N)cn3)nc2-c2ccc(Cl)cc2Cl)[nH]1 + Nc1nc2[nH]cc(CCc3ccc(C(=O)N[C@@H](CCC(=O)O)C(=O)O)cc3)c2c(=O)[nH]1 [Pemetrexed] (partner 0.2 µM)
0.283

# relative viability lookup, item O=c1[nH]c2ccccc2n1C1CCN(CCCC(c2ccc(F)cc2)c2ccc(F)cc2)CC1 [Pimozide] + Nc1nc2[nH]cc(CCc3ccc(C(=O)N[C@@H](CCC(=O)O)C(=O)O)cc3)c2c(=O)[nH]1 [Pemetrexed] (partner 0.2 µM)
0.215

# relative viability lookup, item O=c1[nH]c2ccccc2n1C1CCN(CCCC(c2ccc(F)cc2)c2ccc(F)cc2)CC1 [Pimozide] + CS(=O)(=O)CCNCc1ccc(-c2ccc3ncnc(Nc4ccc(OCc5cccc(F)c5)c(Cl)c4)c3c2)o1 [Lapatinib] (partner 2 µM)
0.793
